Give measured % positive cells for each item. Keep answers brief.
Molecular target: T1, human CCR8 (human, UniProt P51685 1-355)
T1 construct: the cells are named under assay; also called hCCR8
Experiment: flow cytometry, hCCR8 transfected CHOK1 cells
The answer consists of two parts: a number and, after it, its unit.

binder: 3-44 (antibody, V domains shown) VH: QVQLKESGPGLVAPSQSLSITCTVSGFSLTDYGVSWIRQPPGKGPEWLGVIWGGGNTYYNSVLKSRLSISNDNSKSQVFLRMNSLQTADTAIYYCARPRRDYYALDYWGQGTSVTVAS VL: DVVMTQTPLSLPVSLGDQASISCRSSQSLVYTNGNTFLHWYLQKPGQSPKLLIYKVSNRFSGVPDRFSGSGSGTDFTLKISRVEAEDLGVYFCSQSTHVPPTFGGGTKLEIK
% positive cells: 78.9%
//
binder: Ref #1 (antibody, human IgG1, V domains shown, benchmark from WO 2021/260210; human IgG1, produced in CHO; also called TPP-21360) VH: EVQLLESGGGLVQPGGSLRLSCAASGFTFSSYGMHWVRQAPGKGLEWVSAINWNGGSTGYADSVKGRFTISRDNSKNTLYLQMNSLRAEDTAVYYCARGHHSGYDGRFFDYWGQGTLVTVSS VL: QSVLTQPPSVSGAPGQRVTISCTGSSSNIGAGYNVHWYQQLPGTAPKLLIYTNNRRPSGVPDRFSGSKSGTSASLAISGLRSEDEADYYCAAWDASLSGWVFGGGTKLTVL
% positive cells: 75.1%

Now look at this entry.
Entry 3-28 (antibody, V domains shown) VH: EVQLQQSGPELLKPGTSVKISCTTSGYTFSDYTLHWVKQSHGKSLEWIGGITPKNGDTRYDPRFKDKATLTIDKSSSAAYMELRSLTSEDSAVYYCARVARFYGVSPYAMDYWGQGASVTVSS VL: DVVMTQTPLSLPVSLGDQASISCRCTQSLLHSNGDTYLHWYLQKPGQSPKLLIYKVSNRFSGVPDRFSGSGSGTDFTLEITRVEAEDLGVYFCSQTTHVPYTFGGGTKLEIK ; % positive cells = 81.1%
